Test system: RXF 393 renal
assay details: NCI tumour cell line growth inhibition, 48 h
Would you kindly list TGI for each of these compounds?
Answers are plain numbers, in µM.

Example entries and their recorded answers appear below.
Input: # value lookup — system RXF 393 renal, readout TGI, item COC(=O)/C=C\Sc1ccn(/C=C\C(=O)OC)c(=S)n1
Output: 23.3

Input: # value lookup — system RXF 393 renal, readout TGI, item CCCCCc1cc(OC(=O)c2c(O)cc(OC)cc2CCCCC)cc(O)c1C(=O)O
Output: 30.8

Input: # value lookup — system RXF 393 renal, readout TGI, item CC(C)/C(Cl)=N/OC(=O)Nc1ccc(F)c(Cl)c1
Output: 25.6

Input: # value lookup — system RXF 393 renal, readout TGI, item CC[C@H](C)N(CCN)C(=O)c1cc2ccccc2c(-c2ccccc2Cl)n1
Output: 19.7

Input: # value lookup — system RXF 393 renal, readout TGI, item Oc1ccc(/C=C\c2nnc(/C=C\c3ccc(O)c(O)c3)s2)cc1O
Output: 18.5

Lab note: each compound below needs its TGI filled in.
1. O=C(NNc1nc(Cl)nc(N2CCN(C(c3ccccc3)c3ccccc3)CC2)n1)c1ccccc1
2. C=C1C(=O)O[C@H]2[C@H]1CC/C(COC(=O)c1cc3cc(F)ccc3[nH]1)=C\CC[C@@]1(C)O[C@@H]21

Output:
1. 3.13
2. 2.87
